meta.source: PubChem BioAssay (NCI)

Tested on: SK-MEL-2 melanoma
Assay: NCI tumour cell line growth inhibition, 48 h; in the data active = GI50 below about 0.43 µM; inactive = the rest
Classes to choose from: 1 (yes) = active, 0 (no) = inactive

The examples below pair each entry with its known result.
C=C1C(=O)O[C@H]2[C@H]1CC/C(COC(=O)c1cccnc1N)=C\CC[C@@]1(C)O[C@@H]21 ... 0 (no)
CC(=O)[O-].CC(=O)[O-].O=C(N/N=C/c1cc(Cl)cc(Cl)c1[OH2+])c1ccncc1.[Mn+2] ... 0 (no)
CCN(CC)CCNC(=O)c1cccc2c1-c1ccccc1C2=O ... 0 (no)
C=C1c2nc3ccccc3n2C=C(c2cccc(Cl)c2)N1Cc1ccc(OC)cc1 ... 0 (no)
Cc1ccc(N)cc1[As]=[As]c1cc(N)ccc1C (centres undefined) ... 0 (no)

Then this compound:
Q: Fill in: this test's call for CC12OC(CC(O)C1O)n1c3ccccc3c3c4c(c5c6ccccc6n2c5c31)C(=O)N(CCN1CCOCC1)C4=O (centres undefined) is ___
Result: 0 (no)

====

I'd appreciate it if you could supply TGI values for the items below.
Tested on: SF-295 CNS
Test: NCI tumour cell line growth inhibition, 48 h
Where a SMILES comes first, the peptide text is derived from it. [ ]: non-standard residue; d: D form. The star is where a group is joined. NMeF = CN[CH](Cc1ccccc1)C(=O)O; NMeV = CN[CH](C(=O)O)C(C)C; Boc = CC(C)(C)OC(=O)*; OBn = c1ccc(CO*)cc1

O=c1[nH]c2c(c(=O)[nH]1)SC(c1ccccc1)C2 (stereo not given) ... > 100 µM
Nc1[nH]nc2nc(-c3cc(Cl)ccc3Cl)cc(-c3ccc(F)cc3)c12 ... 73.4 µM

Dear colleague, could you please provide TGI for the compounds listed below?
1. C=C1C(=O)O[C@H](c2ccoc2)C[C@@H]1[C@@]1(C)CCCC2(C)C(=O)OCC21 (stereo not given in full)
2. Cc1ccccc1NC(=O)Cc1nc2ccccc2s1
3. CC1(C)C(N2CCOCC2)CS1(=O)=O (stereo not given)

Result:
1. > 100 µM
2. 29.2 µM
3. > 10 µM

Dear colleague, could you please provide TGI for the compounds listed below?
1. O=C(Nc1ccncc1)C(=O)c1cn(S(=O)(=O)c2cccc(Cl)c2)c2ccccc12
2. COc1cc2c(cc1OC)C(C(CCCCCC(CCC(C)C)C1NCCc3cc(OC)c(OC)cc31)CCC(C)C)NCC2 (stereo not given)
3. O=C(O)c1ccc2c(c1)C(=O)N(c1ccc(S(=O)(=O)c3ccc(N4C(=O)c5ccc(C(=O)O)cc5C4=O)cc3)cc1)C2=O
4. O=C(c1cscc1CCc1ccccc1)c1cscc1CCc1ccccc1
5. COC(=O)c1cc(CC2Cc3cc4c(cc3C2=O)CCC4)cc2c1CCC2 (stereo not given)
6. O=C(Sc1c(-c2ccccc2)c(=O)n(-c2ccccc2)c(=S)n1-c1ccccc1)c1ccccc1
7. COc1ccc(N2C(=O)C(Cl)C2c2cc3cc(Br)ccc3nc2Cl)cc1 (stereo not given)

Result:
1: 37.1 µM; 2: 3.43 µM; 3: > 100 µM; 4: > 100 µM; 5: > 100 µM; 6: > 100 µM; 7: > 25 µM

Dear colleague, could you please provide TGI for the compounds listed below?
1. CC(=O)Nc1cc(Cl)cc(Cl)c1O
2. O=Cc1cn(CCCCCCCCn2cc(C=O)c3ccccc32)c2ccccc12

Result:
> 100 µM
> 10 µM

Dear colleague, could you please provide TGI for the compounds listed below?
1. C[N+](C)(C)CC(=O)N/N=C(\Cc1nc2ccc([N+](=O)[O-])cc2[nH]c1=O)C(=O)Nc1nc2ccc([N+](=O)[O-])cc2s1
2. O=C(NC1CC1)c1c(O)[nH]c(=S)[nH]c1=O
3. O=S1SC(=S)C2C=CC=NC21 (stereo not given)
4. S=C1NC2=C(CSC/C2=C\c2ccc(Cl)cc2)C(c2ccc(Cl)cc2)N1 (stereo not given)

Result:
["> 100 µM", "> 100 µM", "62.3 µM", "> 100 µM"]

Dear colleague, could you please provide TGI for the compounds listed below?
1. O=C1/C(=C\c2ccc(F)cc2)CN(C(=O)c2ccccc2F)C/C1=C\c1ccc(F)cc1
2. CC(C)C(NC(=O)OC(C)(C)C)C(=O)N(C)C(Cc1ccccc1)C(=O)N(C)C(C(=O)OCc1ccccc1)C(C)C (stereo not drawn) (Boc-Val-[NMeF]-[NMeV]-OBn; configuration not given here)

Result:
1: 5.02 µM; 2: > 100 µM

====

Tested on: T-47D breast
Assay: NCI tumour cell line growth inhibition, 48 h; in the data active = GI50 below about 0.43 µM; inactive = the rest
Classes to choose from: active, inactive

Q: Fill in: this test's call for `O=C(Oc1ccccc1)N(c1ccccc1)c1ccccc1` is ___
Result: inactive

Q: Fill in: this test's call for `COc1cc(-c2nn(-c3ccc(NC(=O)Nc4cc(C(F)(F)F)cc(C(F)(F)F)c4)cc3)cc2-c2ccncc2)ccc1Cl` is ___
Result: inactive

====

Tested on: UACC-257 melanoma
Test: NCI tumour cell line growth inhibition, 48 h
*1 amine or outer side, *2 acyl side, *3 side chain or, on linkers, in order; H or OH if unused. Where a SMILES comes first, the peptide text is derived from it. Bridges are numbered along the chain shown (N, C = ends). [ ]: non-standard residue; d: D form. The star is where a group is joined. ξ: configuration not given here. X35 = CC[C@H](C)[C@@H](N[*:1])[C@@H](O)CC(=O)O[C@H](C(=O)[C@H](C)C(=O)[*:2])C(C)C; NMeY = CN[C@@H](Cc1ccc(O)cc1)C(=O)O; ξNMeF = CNC(Cc1ccccc1)C(=O)O; NMeV = CN[C@H](C(=O)O)C(C)C; Boc = CC(C)(C)OC(=O)*; OBn = c1ccc(CO*)cc1
I'd appreciate it if you could supply TGI values for the items below.

Would you please look over these solved cases?
CC(C)[C@@H](C(=O)N(C)[C@H](C(=O)N1CCC[C@H]1C(=O)OCc1ccccc1)C(C)C)N(C)C(=O)C(Cc1ccccc1)N(C)C(=O)[C@H](NC(=O)OC(C)(C)C)C(C)C (some centres undefined) (Boc-[dV][ξNMeF][NMeV][NMeV]P-OBn) ... > 31.6 µM
COc1ccc(OC)c(Nc2nc3nonc3nc2Nc2cccc(Br)c2)c1 ... 7.37 µM
O=c1[nH]c(=O)c2c([nH]1)[nH]c1ccc(Br)cc12 ... > 100 µM

Dear colleague, could you please provide TGI for the compounds listed below?
1. COc1ccc(Cn2cc(COc3cc(/C=C/C(=O)c4cc(OC)c(OC)c(OC)c4)ccc3OC)nn2)cc1
2. c1ccc(-c2[nH]ncc2-c2ccnc(-c3ccc(OCCN4CCOCC4)cc3)c2)nc1
3. COc1ccc(N2C(=O)C(Cl)C2c2cc3cc(Br)ccc3nc2Cl)cc1 (centres undefined)

Result:
["> 100 µM", "> 25 µM", "11.9 µM"]

Dear colleague, could you please provide TGI for the compounds listed below?
1. CC[C@H](C)[C@H]1NC(=O)[C@@H](N)[C@@H](C)OC(=O)[C@H](Cc2ccc(OC)cc2)N(C)C(=O)[C@@H]2CCCN2C(=O)[C@H](CC(C)C)NC(=O)[C@@H](C)C(=O)[C@H](C(C)C)OC(=O)C[C@@H]1O (H-T[X35]LP[NMeY](Me); ester 1-C)
2. O=C(NN1C(=O)CS(=O)(=O)C1c1ccc(Cl)c(Cl)c1)c1ccncc1 (centres undefined)
3. C[C@@H](Nc1cc(F)cc(F)c1)c1cc(C(=O)N(C)C)cc2c(=O)cc(N3CCOCC3)oc12
4. CC(O)CNC(=O)Nc1c(C(F)(F)F)cc(-c2ccccc2)[nH]c1=O (centres undefined)
5. C[C@@H]1S[C@H](c2c(F)cccc2Cl)n2c1nc1ccccc12

Result:
> 100 µM
> 100 µM
> 100 µM
> 100 µM
38.5 µM

====

I'd appreciate it if you could supply TGI values for the items below.
Test system: NCI-H226 lung
Assay: NCI tumour cell line growth inhibition, 48 h
Answers are plain numbers, in µM.

CCN(CC)C1Oc2cc3c(cc2C(c2cc(OC)c(O)c(OC)c2)C1C)OCO3 (stereo not drawn) ... 52.3
CC[C@H](C)[C@@H]([C@@H](CC(=O)N1CCC[C@H]1[C@H](OC)[C@@H](C)C(=O)NCCc1ccccc1)OC)N(C)C(=O)C(NC(=O)[C@H](C(C)C)N(C)C)C(C)C (stereo partly drawn) ... 0.00784
CN(C)[C@@H]1C(=O)C(C(=O)NCNc2nc3n[nH]nc3c(=O)[nH]2)=C(O)[C@@]2(O)C(=O)C3=C(O)c4c(O)cccc4[C@@](C)(O)[C@H]3C[C@@H]12 ... 56.9
COc1cccc2c1C(=O)c1c(O)c3c(c(O)c1C2=O)C[C@@](O)(/C(CO)=N/NC(=O)CCCCCN1C(=O)C=CC1=O)C[C@@H]3O[C@H]1C[C@H](N)[C@H](O)[C@H](C)O1 ... 3.37
O=C1/C(=C\c2ccc(F)cc2)CN(C(=O)c2ccccc2F)C/C1=C\c1ccc(F)cc1 ... 12.8

Dear colleague, could you please provide TGI for the molecules listed below?
1. COc1ccc(CN2C(=O)[C@@H]3Cc4c(OC)c(C)c(OC)c(OC)c4[C@H](/C2=C\c2cc(OC)c(OC)c(C)c2OC)N3C(=O)OC(C)C)cc1
2. Cc1ccc(N)cc1[As]=[As]c1cc(N)ccc1C (stereo not drawn)
3. C=CCCCCCCCCCP(=O)(c1ccccc1)c1ccc2c(c1)OCCOCCOCCOCCO2 (stereo not drawn)

Result:
1: 34.1; 2: 3.07; 3: 33.9
